Test: basal S. cerevisiae growth modulation, no modifier, primary screen, OD600, strain BY4716, 24 h, basal condition (AID 1173)
Conditions: OD600, 24 h, higher = more signal, called active from +8 up or from −8 down
readout name: z-score

molecule=CN(C)C(=O)[C@]1(CCS(=O)(=O)c2ccccc2)N=C(c2ccc(OCCCO)cc2)O[C@@H]1c1ccccc1CN=[N+]=[N-] result_value=0.705
molecule="O=C1NC(=O)C2C1C=CC(C(O)C1CCCCC1)N2Nc1ccccn1 (stereo not drawn)" result_value=0.876
molecule=C[C@@]1([C@@H](NS(=O)(=O)c2cccc3cccnc23)c2ccc(-c3ccccc3)cc2)C[C@H]1C1CCCCC1 result_value=0.944
molecule=O=C(c1ccccc1)N1Cc2ccccc2C[C@@]2(N=C(c3ccc(OCCCO)cc3)O[C@H]2c2ccccc2)C1=O result_value=0.728
molecule=C=CCNC(=O)[C@H]1[C@@H]2C(=O)O[C@@H](c3ccccc3)[C@@H](c3ccccc3)N2[C@@H](c2ccc(OCCO)cc2)[C@]12C(=O)N(C(=O)OCCOC)c1ccc(C#CCC(C(=O)OC)C(=O)OC)cc12 result_value=1.71
molecule=C=CC[C@H](O)c1ccc(O)c(F)c1 result_value=-2.36
molecule=[N-]=[N+]=NCc1ccccc1[C@H]1OC(c2ccc(OCCCO)cc2)=N[C@@]1(CCS(=O)(=O)c1ccccc1)C(=O)O result_value=-1.04
molecule=CCCCC(=C=CC[C@H](O)c1cccc(OCCO)c1)C[C@H](O)c1cc(Cl)cc(Cl)c1O result_value=-2.65

---

Target: Calmodulin-1 (Homo sapiens) (UniProt P0DP23)
Assay: CALM1 binders on microarrays, EGTA buffer, profiling panel, biochemical, small-molecule microarray, Cy5-labelled CALM1 (AID 1111);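 note: labelled calmodulin applied in Tris saline Tween buffer holding calcium plus EGTA and DTT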
Conditions: Cy5-CALM1 binding fluorescence, higher = more signal
readout name: composite z-score

compound=O=C1O[C@@H](c2ccccc2)[C@@H](c2ccccc2)N2[C@@H](c3ccc(OCCO)cc3)[C@]3(C(=O)Nc4ccc(C#CC5=CCCCC5)cc43)[C@@H](C(=O)Nc3nc4ccccc4s3)[C@H]12 result_value=0.516
compound=COc1ccc([Si](C)(C)[C@H]2[C@H](CC(=O)N3CCC[C@H]3CO)O[C@@]3(C(=O)N(Cc4cccc(N5CCCCC5=O)c4)c4ccccc43)[C@@H]2C)cc1 result_value=0.733
compound=COCCCNC(=O)[C@]1(Cc2ccccc2N=[N+]=[N-])N=C(c2ccc(OCCCO)cc2)O[C@@H]1c1ccccc1 result_value=2.24
compound="CCCCN1CC=CC23O[C@@H]4C=CCCOC(=O)C4[C@H]2C(=O)N(CCO)[C@@H]3C1=O (some centres not stated)" result_value=-0.555
compound=C=CCOC(=O)[C@H]1[C@@H]2C(=O)O[C@@H](c3ccccc3)[C@@H](c3ccccc3)N2[C@@H](c2ccc(OCCOC(=O)[C@@H]3C[C@@H]4C(=O)N[C@@H](Cc5ccccc5)C(=O)N4[C@@H]3c3ccc(O)cc3)cc2)[C@]12C(=O)Nc1ccc(I)cc12 result_value=0.367
compound=CCOC(=O)C[C@H]1[C@H](OC(=O)c2ccccc2-c2ccccc2)[C@@H](NC(=O)CC(C)C)c2cc(OCCCO)ccc2N1C(=O)c1ccccc1 result_value=-0.0923
compound=O=C1N(Cc2ccccc2)Cc2ccccc2C[C@@]12COC(c1ccc(OCCCO)cc1)=N2 result_value=0.273
compound=COCCOC(=O)N1C(=O)[C@@]2(c3cc(C#CCNC(N)=O)ccc31)[C@H](C(N)=O)[C@H]1C(=O)O[C@H](c3ccccc3)[C@H](c3ccccc3)N1[C@@H]2c1ccc(O)cc1 result_value=0.062
compound="CN1C(=O)C2C=CC(C(O)c3ccc([N+](=O)[O-])cc3)N(Nc3ccccc3)C2C1=O (configuration not stated)" result_value=2.04
compound=C[C@]1(C(=O)O)c2ccccc2C(=O)N(Cc2cc(C(F)(F)F)cc(C(F)(F)F)c2)[C@H]1c1ccc(CO)cc1 result_value=-0.076
compound=O=C1O[C@H](c2ccccc2)[C@H](c2ccccc2)N2[C@H]1[C@@H](C(=O)O)[C@]1(C(=O)Nc3ccc(C#CC4(O)CCCCCC4)cc31)[C@H]2c1ccccc1OCCO result_value=1.99
compound=CC[C@@H](O[Si](C#C[Si](C(C)C)(C(C)C)C(C)C)(C(C)C)C(C)C)c1cn([C@H](CO)Cc2ccccc2)nn1 result_value=0.229
compound=COC(=O)[C@@]1(Cc2ccc(OC)cc2)[C@@H]2[C@@H](CC(=O)[C@H]2CC(=O)C(=O)N(C)C)CN1C(=O)c1ccccc1 result_value=2.66
compound=NCCCCCCNC(=O)[C@@H]1C[C@@H]2C(=O)NCC(=O)N2[C@@H]1c1cccc(OCCO)c1 result_value=-0.115
compound=O=C1O[C@@H](c2ccccc2)[C@@H](c2ccccc2)N2[C@@H](c3ccccc3OCCO)[C@]3(C(=O)Nc4ccc(C#CC5(O)CCCCCC5)cc43)[C@@H](C(=O)N3CCCCCCC3)[C@H]12 result_value=3.06
compound=C=C(CCCC)C(=O)CC[C@H](OC(=O)c1ccccc1-c1ccccc1C(=O)O)c1cccc(OCCO)c1 result_value=-0.268
compound="O=C1C2C=CC(C(O)C(c3ccccc3)c3ccccc3)N(Nc3ccccc3F)C2C(=O)N1c1ccccc1 (configuration not stated)" result_value=1.04
compound=COCCCNC(=O)[C@@]1(Cc2ccccc2I)c2ccccc2C(=O)N(Cc2ccccc2C(F)(F)F)[C@H]1c1ccc(CO)cc1 result_value=-0.285
compound=COc1ccc([Si](C)(C)[C@H]2[C@H](CC(=O)N3CCC[C@H]3CO)O[C@@]3(C(=O)N(C)c4c(Br)cc(C)cc43)[C@@H]2C)cc1 result_value=0.783
compound=C=C1C(=O)C=C2CN(C(=O)c3ccccc3)[C@@](Cc3ccc(F)cc3)(C(=O)OC)[C@@H]12 result_value=2.19
compound=COC(=O)[C@@]1(Cc2ccc(F)cc2)[C@H]2c3cc(C(=O)N(C)C)n(Cc4ccsc4Br)c3C[C@H]2CN1C(=O)c1ccccc1 result_value=2.16
compound=O=C1O[C@H](c2ccccc2)[C@H](c2ccccc2)N2[C@H]1[C@@H](C(=O)Nc1nc3ccccc3s1)[C@]1(C(=O)Nc3ccccc31)[C@H]2c1ccccc1OCCO result_value=2.01
compound=[N-]=[N+]=NCc1ccccc1[C@H]1OC(c2ccc(OCCCO)cc2)=N[C@@]1(Cc1ccccc1N=[N+]=[N-])C(N)=O result_value=1.1
compound=COc1ccc([Si](C)(C)[C@H]2[C@H](CC(=O)N3CCC[C@H]3CO)O[C@@]3(C(=O)N(C)c4ccccc43)[C@@H]2C)cc1 result_value=-0.13
compound="COc1ccc(C(O)C2C=CC3C(=O)N(C)C(=O)C3N2Nc2ccccc2)cc1 (configuration not stated)" result_value=0.675
compound=COCCOC(=O)N1C(=O)[C@@]2(c3cc(C#CCNC(N)=O)ccc31)[C@H](c1ccccc1OCCO)N1[C@H](c3ccccc3)[C@H](c3ccccc3)OC(=O)[C@H]1[C@@H]2C(=O)N1CCCCCCC1 result_value=1.47
compound="CCN1C(=O)C2CC(=O)C3C(CN(S(=O)(=O)c4ccc(C)cc4)C3c3ccc(C)cc3)C2C1=O (configuration not stated)" result_value=1.85

---

Biological target: Luciferin 4-monooxygenase (Photinus pyralis) (UniProt P08659)
Sequence (P08659 whole entry, looked up): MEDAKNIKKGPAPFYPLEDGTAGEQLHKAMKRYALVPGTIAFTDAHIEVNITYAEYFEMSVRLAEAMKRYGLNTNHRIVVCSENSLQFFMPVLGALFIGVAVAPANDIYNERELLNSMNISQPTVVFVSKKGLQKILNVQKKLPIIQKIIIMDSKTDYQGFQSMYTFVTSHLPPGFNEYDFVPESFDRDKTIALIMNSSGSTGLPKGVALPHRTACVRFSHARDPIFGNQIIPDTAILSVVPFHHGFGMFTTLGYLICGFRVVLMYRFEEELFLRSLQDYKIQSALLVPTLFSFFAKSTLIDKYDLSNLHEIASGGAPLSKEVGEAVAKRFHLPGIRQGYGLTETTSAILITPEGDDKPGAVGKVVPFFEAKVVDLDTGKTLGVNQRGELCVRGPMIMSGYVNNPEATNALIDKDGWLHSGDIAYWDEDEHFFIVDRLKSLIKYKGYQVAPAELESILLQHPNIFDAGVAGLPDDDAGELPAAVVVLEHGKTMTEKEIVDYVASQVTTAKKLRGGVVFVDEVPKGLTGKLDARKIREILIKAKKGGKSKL
Assay: firefly luciferase enzyme inhibitors, primary screen, biochemical, luminescence, purified enzyme, 2006 set (AID 1141);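 note: cell-free assay with purified firefly luciferase at 100 ng per well in PBS; test concentration not given here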
Details: SteadyGlo luminescence, 30 min, higher = more signal, called active from +8 up or from −8 down
readout name: z-score

compound=COC(=O)[C@@]1(Cc2ccccc2)[C@H]2c3cc(C(=O)N(C)C)n(CCF)c3C[C@H]2CN1C(=O)c1ccccc1 result_value=1.02
compound=O=C1c2ccccc2[C@@]2(Cc3ccccc3N(CC(F)(F)F)C2=O)[C@H](c2ccc(CO)cc2)N1Cc1ccccc1 result_value=0.746
compound=Cc1ccc(S(=O)(=O)N2[C@@H](c3ccccc3)C(C(=O)O)=CC[C@H]2c2ccc(F)cc2)cc1 result_value=2.52
compound=COCCOC(=O)N1C(=O)[C@@]2(c3cc(C#CCC(C(=O)OC)C(=O)OC)ccc31)[C@H](c1ccc(O)cc1)N1[C@H](c3ccccc3)[C@H](c3ccccc3)OC(=O)[C@H]1[C@@H]2C(=O)N1CCc2cc(OC)c(OC)cc2C1 result_value=-1.05
compound=Cc1cccc([C@H]2C[C@H]3C(Br)=C[C@@]2(CO)C(=O)[C@]32CO2)c1 result_value=0.75
compound="CC[C@H]1C2=C3C(CC[C@H]4C(OCc5ccc(F)cc5C(F)(F)F)OC[C@](C)([C@@H]34)N(C(=O)OC(C)(C)C)C2)C(COC(C)=O)C1COC(C)=O (stereo partly drawn)" result_value=1.17
compound=COc1cc(Cc2cc3c(c(-c4ccccc4)n2)[Si](C(C)C)(C(C)C)OC3)cc(OC)c1OC result_value=-0.111
compound=O=C/C=C/c1ccc(-c2ccccc2)cc1 result_value=0.0686

Values compiled from PubChem BioAssay.
